Assayed System: SMARCA2 (Homo sapiens, UniProt P51531)
Construct: endogenous in cells
Sequence (P51531 whole entry, species assumed): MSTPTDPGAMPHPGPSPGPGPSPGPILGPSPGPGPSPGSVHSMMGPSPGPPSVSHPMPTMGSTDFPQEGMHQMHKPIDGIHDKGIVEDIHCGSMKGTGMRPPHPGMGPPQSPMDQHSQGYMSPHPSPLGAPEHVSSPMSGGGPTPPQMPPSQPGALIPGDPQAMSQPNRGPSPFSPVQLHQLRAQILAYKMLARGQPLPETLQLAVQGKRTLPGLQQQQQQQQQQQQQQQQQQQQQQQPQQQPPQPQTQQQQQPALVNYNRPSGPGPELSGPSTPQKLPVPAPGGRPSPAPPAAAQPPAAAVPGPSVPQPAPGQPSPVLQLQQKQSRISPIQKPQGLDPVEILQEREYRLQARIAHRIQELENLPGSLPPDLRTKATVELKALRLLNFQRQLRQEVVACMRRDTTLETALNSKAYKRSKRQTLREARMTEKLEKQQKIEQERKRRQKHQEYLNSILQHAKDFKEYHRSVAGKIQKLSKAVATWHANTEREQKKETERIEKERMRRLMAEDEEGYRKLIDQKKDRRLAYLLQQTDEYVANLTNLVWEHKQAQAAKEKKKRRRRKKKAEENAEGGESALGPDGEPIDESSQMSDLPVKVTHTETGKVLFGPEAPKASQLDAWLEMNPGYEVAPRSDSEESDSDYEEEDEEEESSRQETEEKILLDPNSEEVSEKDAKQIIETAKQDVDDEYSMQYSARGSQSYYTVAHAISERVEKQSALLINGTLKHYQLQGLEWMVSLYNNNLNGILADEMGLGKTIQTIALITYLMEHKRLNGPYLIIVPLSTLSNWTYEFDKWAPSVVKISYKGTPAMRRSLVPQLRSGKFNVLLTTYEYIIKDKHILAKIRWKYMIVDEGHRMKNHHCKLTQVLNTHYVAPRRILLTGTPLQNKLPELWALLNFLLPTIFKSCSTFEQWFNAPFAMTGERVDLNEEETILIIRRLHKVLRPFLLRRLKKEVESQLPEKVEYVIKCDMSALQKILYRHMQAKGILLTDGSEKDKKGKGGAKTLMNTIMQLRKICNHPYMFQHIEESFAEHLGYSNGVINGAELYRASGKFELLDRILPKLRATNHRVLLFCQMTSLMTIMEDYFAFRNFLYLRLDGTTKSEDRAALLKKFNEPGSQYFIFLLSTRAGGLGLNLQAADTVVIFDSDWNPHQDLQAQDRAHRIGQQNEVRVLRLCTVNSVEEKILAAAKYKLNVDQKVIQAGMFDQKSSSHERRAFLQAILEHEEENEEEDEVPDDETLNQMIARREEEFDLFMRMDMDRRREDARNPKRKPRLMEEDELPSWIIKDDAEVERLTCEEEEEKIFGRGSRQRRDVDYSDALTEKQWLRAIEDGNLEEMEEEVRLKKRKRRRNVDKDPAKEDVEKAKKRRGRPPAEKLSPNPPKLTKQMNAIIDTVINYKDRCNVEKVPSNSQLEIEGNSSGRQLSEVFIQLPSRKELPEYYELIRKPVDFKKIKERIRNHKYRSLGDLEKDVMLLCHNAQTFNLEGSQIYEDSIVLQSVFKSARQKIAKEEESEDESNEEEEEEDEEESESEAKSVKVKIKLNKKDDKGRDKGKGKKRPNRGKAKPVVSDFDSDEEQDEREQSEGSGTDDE
Procedure Text: SMARCA2 Cellular Degradation Assay (Western blot analysis on Jess platform)
Format: cell-based
Study Conditions: cellular degradation
Property: DC50 (nM)

INSERT INTO measurements (molecule, result_unit, reported_result) VALUES
  ('O=C1CC[C@H](c2ccc(N3CCC(CN4CC[C@H]5[C@H](CCN5C(=O)C5(c6ccccc6)CCN(c6cnnc(-c7ccccc7O)c6)CC5)C4)CC3)cc2)C(=O)N1 (mixture of isomers)', 'nM', 13.7),
  ('O=C1CCC(c2ccc(N3CCC(CN4CC5(C4)CN(C(=O)C4(c6ccc(Cl)c(Cl)c6)CCN(c6cnnc(-c7ccccc7O)c6)CC4)C5)CC3)cc2)C(=O)N1 (racemic)', 'nM', 71.7),
  ('CC(C)c1cc(C2(C(=O)N(C)C3CCN(C4COC5(CCN(c6ccc([C@H]7CCC(=O)NC7=O)cc6)CC5)C4)CC3)CCN(c3cnnc(-c4ccccc4O)c3)CC2)no1 (mixture of isomers)', 'nM', 11.9),
  ('CN(C(=O)C1(c2ccccc2)CCN(c2cnnc(-c3ccccc3O)c2)CC1)C1CCN([C@H]2COC3(CCN(c4ccc([C@H]5CCC(=O)NC5=O)cc4)CC3)C2)CC1 (single isomer, unassigned)', 'nM', 7.34),
  ('O=C1CCC(Nc2ccc(C3CCN(CCNC(=O)C4(c5ccccc5)CCN(c5cnnc(-c6ccccc6O)c5)CC4)CC3)cc2)C(=O)N1 (racemic)', 'nM', 38.3);

* * *

Fold Selectivity SMARCA4/2 for assorted molecules
Assayed System: SMARCA2 (Homo sapiens, UniProt P51531)
Construct: endogenous in cells
Procedure Text: SMARCA2 Cellular Degradation Assay (Western blot analysis on Jess platform)
Assay type: cell-based
Study Conditions: ratio DC50 SMARCA4 / DC50 SMARCA2
Property: Fold Selectivity SMARCA4/2

INSERT INTO measurements (molecule, property, reported_result) VALUES
  ('O=C1CCC(c2ccc(N3CCC(CCN4CC5(C4)CN(C(=O)C4(c6cc7ccccn7n6)CCN(c6cnnc(-c7ccccc7O)c6)CC4)C5)CC3)cc2)C(=O)N1 (racemic)', 'Fold Selectivity SMARCA4/2', 705),
  ('CN(C(=O)C1(c2ccccc2)CCN(c2cnnc(-c3ccccc3O)c2)CC1)C1CCN(CCC2CCN(c3ccc(C4CCC(=O)NC4=O)c(F)c3)CC2)CC1 (racemic)', 'Fold Selectivity SMARCA4/2', 44),
  ('CN(C(=O)C1(c2ccccc2)CCN(c2cnnc(-c3ccccc3O)c2)CC1)C1CCN(CCC2CCN(c3ccc([C@H]4CCC(=O)NC4=O)cc3)CC2)CC1', 'Fold Selectivity SMARCA4/2', 28);

* * *

Assayed System: SMARCA2 (Homo sapiens)
Construct: endogenous in cells
Procedure Text: SMARCA2 Cellular Degradation Assay (Western blot analysis on Jess platform)
Format: cell-based
Study Conditions: cellular degradation
Criterion: DC50 strictly less than 6 nM. Met: True. Not met: False.

INSERT INTO measurements (compound, category) VALUES
  ('COC1(C(=O)N(C)C2CCN(C(=O)CN3CCC(c4ccc([C@@H]5CCC(=O)NC5=O)cc4)CC3)CC2)CCN(c2cnnc(-c3ccccc3O)c2)CC1 (racemic)', 'False'),
  ('O=C1CCC(c2c(F)cc(N3CCC(CN4CCC5(CC4)CN(C(=O)C4(Oc6ccccc6)CCN(c6cnnc(-c7ccccc7O)c6)CC4)C5)CC3)cc2F)C(=O)N1 (racemic)', 'True'),
  ('CN(C(=O)C1(c2ccnn2C)CCN(c2cnnc(-c3ccccc3O)c2)CC1)C1CCN(CC2CCN(c3ccc(C4CCC(=O)NC4=O)cc3)CC2)CC1 (racemic)', 'True'),
  ('O=C1CCC(c2ccc(N3CCC(F)(CN4CC5(C4)CN(C(=O)C4(c6ccccc6)CCN(c6cnnc(-c7ccccc7O)c6)CC4)C5)CC3)nc2)C(=O)N1 (racemic)', 'False'),
  ('Cc1ccnn1C1(C(=O)N(C)C2CCN(CCC3CCN(c4cccc5c4n(C)c(=O)n5C4CCC(=O)NC4=O)CC3)CC2)CCN(c2cnnc(-c3ccccc3O)c2)CC1 (racemic)', 'True'),
  ('CN(C(=O)C1(c2cnn(C)c2)CCN(c2cnnc(-c3ccccc3O)c2)CC1)C1CCN(C2COC3(CCN(c4ccc([C@H]5CCC(=O)NC5=O)cc4)CC3)C2)CC1 (mixture of isomers)', 'True'),
  ('Cn1ccc(OC2(C(=O)N3CC4(CN(CCC5CCN(c6cccc7c6n(C)c(=O)n7C6CCC(=O)NC6=O)CC5)C4)C3)CCN(c3cnnc(-c4ccccc4O)c3)CC2)n1 (racemic)', 'True'),
  ('CCCN(C(=O)C1(c2ccccc2)CCN(c2cnnc(-c3ccccc3O)c2)CC1)C1CCN(CCC2CCN(c3ccc([C@H]4CCC(=O)NC4=O)cc3)CC2)CC1', 'True'),
  ('COC1(C(=O)N2CCC3(CC2)CN(CC2CCN(c4ccc([C@H]5CCC(=O)NC5=O)cc4)CC2)C3)CCN(c2cnnc(-c3ccccc3O)c2)CC1', 'False'),
  ('O=C1CC[C@H](c2ccc(N3CCC(CN4CC(F)C5(C4)CN(C(=O)C4(c6ccccc6)CCN(c6cnnc(-c7ccccc7O)c6)CC4)C5)CC3)cc2)C(=O)N1 (stereo partly drawn)', 'False'),
  ('O=C1CCC(c2c(F)cc(N3CCC(CN4CC[C@@H](NC(=O)C5(c6ccccc6)CCN(c6cnnc(-c7ccccc7O)c6)CC5)CC45CCC5)CC3)cc2F)C(=O)N1 (mixture of isomers)', 'True'),
  ('CN(C(=O)C1(c2cnn(C)c2)CCN(c2cnnc(-c3ccccc3O)c2)CC1)C1CCN(CC2CCN(c3ccc(C4CCC(=O)NC4=O)cc3)CC2)CC1 (racemic)', 'True'),
  ('CN(C(=O)C1(OC2CC2)CCN(c2cnnc(-c3ccccc3O)c2)CC1)C1CCN(CCC2CCN(c3ccc([C@H]4CCC(=O)NC4=O)c(F)c3)CC2)CC1 (racemic)', 'False'),
  ('O=C1CC[C@H](c2ccc(N3CCC(CNC4CCN(C(=O)C5(Oc6ccccc6)CCN(c6cnnc(-c7ccccc7O)c6)CC5)CC4)CC3)cc2)C(=O)N1', 'False'),
  ('O=C1CC[C@H](c2ccc(OCC3CCN(CC4CCN(C(=O)C5(c6ccccc6)CCN(c6cnnc(-c7ccccc7O)c6)CC5)CC4)CC3)cc2)C(=O)N1', 'False'),
  ('COC1(C(=O)NCC2(c3ccccc3)CCN(c3cnnc(-c4ccccc4O)c3)CC2)CCN(CCC2CCN(c3ccc([C@H]4CCC(=O)NC4=O)cc3)CC2)CC1 (racemic)', 'True'),
  ('O=C1CCC(c2ccc(N3CCC(CN4CC5(C4)CN(CC4(c6ccccc6)CCN(c6cnnc(-c7ccccc7O)c6)CC4)C5)CC3)cc2)C(=O)N1 (racemic)', 'False'),
  ('CCN(C(=O)C1(c2ccccc2)CCN(c2cnnc(-c3ccccc3O)c2)CC1)C1CCN(CC2CCN(c3ccc([C@H]4CCC(=O)NC4=O)cc3)CC2)CC1', 'True'),
  ('O=C1CCC(c2ccc(OCC3CCN(C(=O)C4(c5ccccc5)CCN(c5cnnc(-c6ccccc6O)c5)CC4)CC3)cc2)C(=O)N1 (racemic)', 'False'),
  ('Cn1ccc(OC2(C(=O)N3CCC4(CC3)CN(CCC3CCN(c5ccc(C6CCC(=O)NC6=O)cc5)CC3)C4)CCN(c3cnnc(-c4ccccc4O)c3)CC2)n1 (racemic)', 'False'),
  ('Cn1c(=O)n(C2CCC(=O)NC2=O)c2cccc(N3CCN(CC(=O)N4CC5(C4)CN(C(=O)C4(c6ccccc6)CCN(c6cnnc(-c7ccccc7O)c6)CC4)C5)CC3)c21 (racemic)', 'False');

* * *

Dmax for assorted compounds
Assayed System: SMARCA4 (Homo sapiens)
Construct: endogenous in cells
Sequence (P51532 whole entry, species assumed): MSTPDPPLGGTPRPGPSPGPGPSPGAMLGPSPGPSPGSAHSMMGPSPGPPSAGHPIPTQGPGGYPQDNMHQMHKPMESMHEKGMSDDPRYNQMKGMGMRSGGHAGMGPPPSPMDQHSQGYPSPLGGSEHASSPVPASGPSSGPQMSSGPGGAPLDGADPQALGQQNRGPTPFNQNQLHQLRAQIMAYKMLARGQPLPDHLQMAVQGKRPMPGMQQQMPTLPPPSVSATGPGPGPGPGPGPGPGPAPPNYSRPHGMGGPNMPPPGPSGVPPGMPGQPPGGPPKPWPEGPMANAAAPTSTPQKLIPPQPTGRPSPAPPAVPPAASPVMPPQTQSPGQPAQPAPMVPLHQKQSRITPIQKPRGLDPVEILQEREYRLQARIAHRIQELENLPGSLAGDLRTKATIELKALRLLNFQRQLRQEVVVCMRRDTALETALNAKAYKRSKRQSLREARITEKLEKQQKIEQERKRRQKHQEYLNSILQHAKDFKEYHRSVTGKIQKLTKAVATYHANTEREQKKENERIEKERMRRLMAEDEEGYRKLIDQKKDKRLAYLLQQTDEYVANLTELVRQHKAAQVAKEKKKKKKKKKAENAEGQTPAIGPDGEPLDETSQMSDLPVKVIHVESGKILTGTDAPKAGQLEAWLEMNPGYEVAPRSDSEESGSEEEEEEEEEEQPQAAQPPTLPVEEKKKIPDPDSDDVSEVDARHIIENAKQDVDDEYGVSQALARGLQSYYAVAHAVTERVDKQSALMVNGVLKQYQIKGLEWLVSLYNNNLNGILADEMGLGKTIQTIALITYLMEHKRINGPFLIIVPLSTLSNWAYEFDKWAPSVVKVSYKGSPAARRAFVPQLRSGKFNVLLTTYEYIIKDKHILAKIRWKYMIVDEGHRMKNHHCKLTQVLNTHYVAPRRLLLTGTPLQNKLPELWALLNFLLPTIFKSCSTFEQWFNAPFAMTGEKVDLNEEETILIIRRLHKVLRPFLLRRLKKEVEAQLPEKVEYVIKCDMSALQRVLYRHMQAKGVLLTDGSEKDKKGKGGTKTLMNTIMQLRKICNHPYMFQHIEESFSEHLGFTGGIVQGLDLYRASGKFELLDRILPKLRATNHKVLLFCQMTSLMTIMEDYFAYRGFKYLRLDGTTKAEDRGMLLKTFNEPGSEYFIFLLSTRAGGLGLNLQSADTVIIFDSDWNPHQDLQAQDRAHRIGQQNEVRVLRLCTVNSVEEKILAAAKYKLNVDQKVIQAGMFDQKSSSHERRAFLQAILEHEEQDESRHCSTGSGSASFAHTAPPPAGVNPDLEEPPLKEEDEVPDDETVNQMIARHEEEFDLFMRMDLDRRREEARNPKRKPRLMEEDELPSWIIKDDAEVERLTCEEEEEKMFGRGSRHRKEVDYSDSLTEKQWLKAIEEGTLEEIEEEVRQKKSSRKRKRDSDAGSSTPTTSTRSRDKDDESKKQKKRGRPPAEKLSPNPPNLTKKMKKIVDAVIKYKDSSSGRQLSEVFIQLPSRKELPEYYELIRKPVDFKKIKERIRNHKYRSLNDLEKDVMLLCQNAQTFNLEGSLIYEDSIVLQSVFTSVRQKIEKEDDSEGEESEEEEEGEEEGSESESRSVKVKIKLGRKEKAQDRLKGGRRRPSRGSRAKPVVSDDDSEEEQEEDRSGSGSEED
Procedure Text: Cellular degradation assay, SMARCA4 (Table 1)
Type: cell-based
Property: Dmax (%)

INSERT INTO assay_data (compound, reported_result) VALUES
  ('Cn1ccc(OC2(C(=O)N3CCC4(CC3)CN(CCC3CCN(c5ccc(C6CCC(=O)NC6=O)cc5)CC3)C4)CCN(c3cnnc(-c4ccccc4O)c3)CC2)n1 (racemic)', 39.1),
  ('CN(C(=O)C1(c2ccncc2)CCN(c2cnnc(-c3ccccc3O)c2)CC1)C1CCN(CCC2CCN(c3ccc([C@H]4CCC(=O)NC4=O)cc3)CC2)CC1', 31.2),
  ('O=C1CCC(c2ccc(N3CCN(C(=O)C4CC45CCN(C(=O)C4(c6ccccc6)CCN(c6cnnc(-c7ccccc7O)c6)CC4)C5)CC3)cc2)C(=O)N1 (racemic)', 0.46),
  ('O=C1CC[C@@H](c2cccc(N3CCC(CN4CCC5(CC4)CN(C(=O)C4(c6ccccc6)CCN(c6cnnc(-c7ccccc7O)c6)CC4)C5)CC3)c2)C(=O)N1 (racemic)', 60.2),
  ('O=C1CC[C@H](c2ccc(N3CCC(CN4CC5(C4)CN(C(=O)C4(c6ccccc6)CCN(c6cnnc(-c7ccccc7O)c6)CC4)C5)CC3)cc2)C(=O)N1', 49.3),
  ('Cc1ccnn1C1(C(=O)N(C)C2CCN(CCC3CCN(c4ccc(C5CCC(=O)NC5=O)c(F)c4)CC3)CC2)CCN(c2cnnc(-c3ccccc3O)c2)CC1 (racemic)', 55.4),
  ('O=C1CC[C@H](c2ccc(N3CCC(CN4CCC5(C4)CN(C(=O)C4(c6ccccc6)CCN(c6cnnc(-c7ccccc7O)c6)CC4)C5)CC3)cc2)C(=O)N1', 54.2),
  ('O=C1CC[C@H](c2ccc(N3CCC(CN4CCCC4C4CCCCN4C(=O)C4(c5ccccc5)CCN(c5cnnc(-c6ccccc6O)c5)CC4)CC3)cc2)C(=O)N1 (stereo partly drawn)', 9.32),
  ('C[C@@H](Oc1ccc(C2CCC(=O)NC2=O)cc1)C1CCN(C(=O)C2(c3ccccc3)CCN(c3cnnc(-c4ccccc4O)c3)CC2)CC1 (mixture of isomers)', 17.5),
  ('CC1(CCN2CC3(C2)CN(C(=O)C2(c4ccccc4)CCN(c4cnnc(-c5ccccc5O)c4)CC2)C3)CCN(c2ccc(C3CCC(=O)NC3=O)cc2)CC1 (racemic)', 38.9),
  ('CC(C)c1cc(C2(C(=O)N(C)C3CCN(CC4CCN(c5ccc(C6CCC(=O)NC6=O)cc5)CC4)CC3)CCN(c3cnnc(-c4ccccc4O)c3)CC2)no1 (racemic)', 58.1),
  ('O=C1CCC(c2ccc(N3CCC(F)(CN4CC5(C4)CN(C(=O)C4(c6ccccc6)CCN(c6cnnc(-c7ccccc7O)c6)CC4)C5)CC3)nc2)C(=O)N1 (racemic)', 57),
  ('O=C1CCC(c2ccc(OCC3CCN(CC4CCN(C(=O)C5(c6ccccc6)CCN(c6cnnc(-c7ccccc7O)c6)CC5)CC4)CC3)cc2)C(=O)N1 (racemic)', 38.9),
  ('CN(C(=O)C1(c2ccnn2C)CCN(c2cnnc(-c3ccccc3O)c2)CC1)C1CCN(CC2CCN(c3ccc(C4CCC(=O)NC4=O)cc3)CC2)CC1 (racemic)', 41.8),
  ('Cn1nc(N2CCC(=O)NC2=O)c2cccc(N3CCC(CN4CC5(C4)CN(C(=O)C4(c6ccccc6)CCN(c6cnnc(-c7ccccc7O)c6)CC4)C5)CC3)c21', 35),
  ('O=C1CCC(c2ccc(OC3CCN(C(=O)C4CCN(C(=O)C5(c6ccccc6)CCN(c6cnnc(-c7ccccc7O)c6)CC5)CC4)CC3)cc2)C(=O)N1 (racemic)', 12.3),
  ('CN(C(=O)C1(c2ccccc2)CCN(c2cnnc(-c3ccccc3O)c2)CC1)C1CCN(CCC2CCN(c3cccc4c3n(C)c(=O)n4C3CCC(=O)NC3=O)CC2)CC1 (racemic)', 84.4),
  ('CC1(C)CC(NC(=O)C2(c3ccccc3)CCN(c3cnnc(-c4ccccc4O)c3)CC2)CCN1CC1CCN(c2ccc([C@H]3CCC(=O)NC3=O)cc2)CC1 (stereo partly drawn)', 56.2),
  ('COC1(C(=O)N2CC3(CN(CCC4CCN(c5ccc(C6CCC(=O)NC6=O)cc5)CC4)C3)C2)CCN(c2cnnc(-c3ccccc3O)c2)CC1 (racemic)', 23.8),
  ('O=C1CC[C@H](c2ccc(N3CCC(CN4CCN(C(=O)C5(c6ccccc6)CCN(c6cnnc(-c7ccccc7O)c6)CC5)CCC4C(F)(F)F)CC3)cc2)C(=O)N1 (stereo partly drawn)', 9.06),
  ('COC1(C(=O)NCC2(c3ccccc3)CCN(c3cnnc(-c4ccccc4O)c3)CC2)CCN(CCC2CCN(c3ccc([C@H]4CCC(=O)NC4=O)cc3)CC2)CC1 (racemic)', 73.3);

Each recorded value in this set is attributed to patent US20250051344A1.
